Test system: GA-deficient transgenic soybean line 719 (R5)
Assay: Hilum treatment of soybean seeds, seedling growth and development, GA-deficient soybean
Assay type: in vivo, Glycine max
Parameters: key: pos: emergence faster/stem segment longer than controls; 0: emergence timing/stem segment length similar to controls; neg: emergence slower/stem segment shorter than controls
Details: L719; hilum treatment, single rate per compound 8.3-16.5 μg/seed
measured_metric: 1st internode length (12 DAP)

>>> print(df.to_string())
                                   compound                             target_system                measured_metric  result
0  C=C1C[C@]23C[C@@]1(O)CC[C@H]2[C@@]12C=C[C@H](OC(C)=O)[C@@](C)(C(=O)O1)[C@H]2[C@@H]3C(=O)O [GA3-3-acetate]  GA-deficient transgenic soybean line 719 (R5)  1st internode length (12 DAP)     pos
1  C=C1C[C@]23C[C@@]1(O)CC[C@H]2[C@@]12CC=C[C@@](C)(C(=O)O1)[C@H]2[C@@H]3C(=O)O  GA-deficient transgenic soybean line 719 (R5)  1st internode length (12 DAP)     pos
2  C=C1C[C@]23C[C@H]1CC[C@H]2[C@@]12CCC[C@@](C)(C(=O)O1)[C@H]2[C@@H]3C(=O)O  GA-deficient transgenic soybean line 719 (R5)  1st internode length (12 DAP)     pos
3  C=C1C[C@]23C[C@@]1(O)CC[C@H]2[C@@]12C=C[C@H](O)[C@@](C)(C(=O)O1)[C@H]2[C@@H]3C(=O)O  GA-deficient transgenic soybean line 719 (R5)  1st internode length (12 DAP)     pos

====

Tested on: wild-type A3237 soybean
Test: Hilum treatment of soybean seeds, seedling growth and development, wild-type soybean
Format: in vivo, Glycine max
Details: rate response
Description: In the previous experiments, the effect of various GA compounds on transgenic, GA-deficient and wild-type soybean is evaluated by treating seeds with these compounds via imbibition. […] As shown by the results presented below, direct application of small quantities of GA compounds dissolved in an organic solvent to the hilum is an effective method of treating soybean seeds. […] Emergence timing is measured by counting the number of emerged seedlings at different times after planting. […]
measured_metric: Lowest rate where biological activity is observed, emergence timing

>>> df
                                   compound        result
0  C=C1C[C@@]23CC[C@H]4[C@@](C)(CCC[C@@]4(C)C(=O)O)[C@@H]2CC[C@]1(O)C3 (single isomer, unassigned; ent-7) [steviol]  >100 μg/seed
1  C=C1C[C@]23C[C@@]1(O)CC[C@H]2[C@]1(C)CCC[C@@](C)(C(=O)O)[C@H]1[C@@H]3C(=O)O [GA53]   >10 μg/seed
2  C=C1C[C@@]23CC[C@@H]4[C@](C)(CO)CCC[C@@]4(C)[C@@H]2CC[C@@H]1C3 [kaurenol]  >100 μg/seed

Query compound follows.
QUERY: Tell me its Lowest rate where biological activity is observed, emergence timing on wild-type A3237 soybean: C=C1C[C@]23C[C@H]1CC[C@H]2[C@]1(C)CCC[C@@](C)(C(=O)O)[C@H]1[C@@H]3C=O [GA12-aldehyde]
RESULT: >100 μg/seed

====

Tested on: GA-deficient transgenic soybean line 719 (R5)
Assay: Hilum treatment of soybean seeds, seedling growth and development, GA-deficient soybean
Type: in vivo, Glycine max
Conditions: L719; hilum treatment, rate response
measured_metric: Lowest rate where biological activity is observed, 1st internode length (10 DAP)

>>> df
                                   molecule        result
0  C=C1C[C@@]23CC[C@@H]4[C@](C)(CO)CCC[C@@]4(C)[C@@H]2CC[C@@H]1C3  >100 μg/seed

QUERY: Using the record for C=C1C[C@@]23CC[C@H]4[C@@](C)(CCC[C@@]4(C)C(=O)O)[C@@H]2CC[C@]1(O)C3 (single isomer, unassigned; ent-7) , state its measured Lowest rate where biological activity is observed, 1st internode length (10 DAP).
RESULT: >100 μg/seed

QUERY: Read off the recorded Lowest rate where biological activity is observed, 1st internode length (10 DAP) for "C=C1C[C@]23C[C@H]1CC[C@H]2[C@]1(C)CCC[C@@](C)(C(=O)O)[C@H]1[C@@H]3C=O"
RESULT: >100 μg/seed

QUERY: Look up Lowest rate where biological activity is observed, 1st internode length (10 DAP) of "C=C1C[C@]23C[C@@]1(O)CC[C@H]2[C@]1(C)CCC[C@@](C)(C(=O)O)[C@H]1[C@@H]3C(=O)O" and report it.
RESULT: >10 μg/seed
